Assay: Primary fluorescence-based thiol-reactive (MSTI) qHTS assay for identification of artifact compounds. (AID 1845221);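 further: thiol-reactive compounds lower the probe fluorescence signal; nearly all actives have a fitted effect of over 65% in size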
Conditions: MSTI thiol-reactivity probe, 1 h; series mostly up to 53.8 µM
Results filed as inconclusive are left out. Calls of active or inactive are those of the source. The call rests on the fitted dose curve; in most records, active means well fitted inhibition curve with a large enough effect; inconclusive means small, poorly fitted or top-dose-only effect; inactive means no such curve, though single readings can be large or run the other way.
The reply should be one of these categories: active, inactive

Some solved cases for reference:
>  <compound>
C[C@@H](NC(=O)c1ncnc(N)c1Cl)c1ncc(C(=O)Nc2cc(C(F)(F)F)c(Cl)cn2)s1

>  <assigned label>
inactive

$$$$
>  <compound>
CC1(COc2ccc3c(c2)ncn3-c2ccc3cccc(N4CCC(N)CC4)c3n2)COC1

>  <assigned label>
inactive

$$$$
>  <compound>
Cn1cnc(-c2cc3nccc(Oc4ccc(NC(=S)NC(=O)Cc5ccccc5)cc4F)c3s2)c1

>  <assigned label>
inactive

$$$$

Q: Returns: the outcome recorded for O=C(CCCN1CCN(c2ccc(F)cc2)CC1)NC1c2ccccc2CSc2ccccc21 (stereo unspecified) in this assay.
Ans: inactive

Q: Returns: the outcome recorded for "COC(=O)N1CCN(Cc2cccc(NC(=O)Nc3ccc(C)nc3)c2F)CC1" in this assay.
Ans: inactive

Q: Returns: the outcome recorded for "NS(=O)(=O)c1cc(Cl)c(Cl)c(S(N)(=O)=O)c1" in this assay.
Ans: inactive

Q: Returns: the outcome recorded for "CC(C)(O)CC(=O)NCCn1ccc2ncnc(Nc3ccc(Oc4cccc(C(F)(F)F)c4)c(Cl)c3)c21" in this assay.
Ans: inactive

Q: Returns: the outcome recorded for "Cc1ccc2c(c1)C(=O)[C@]1(O)CCN(c3ccccc3)C1=N2" in this assay.
Ans: inactive

Q: Returns: the outcome recorded for "CN(C)c1nc(Cc2ccc(NC(=O)c3ccc(C(F)(F)F)cc3)cc2)nc(N(C)C)c1CC(=O)O" in this assay.
Ans: inactive

----------
Assay: Quantitative High-Throughput drug screen in 47 multiple myeloma cell lines against the NCATS MIPE library collection: PE2_PLB cell viability assay (AID 1919869); further: nearly all actives have a fitted effect of over 35% in size
Settings: PE2_PLB myeloma cells viability, ATP luminescence, 48 h; series mostly up to 45.8 µM
Records with an inconclusive call do not appear. Active and inactive are the calls of the source. The call rests on the fitted dose curve; in most records, active means well fitted cell-killing curve with a large enough effect; inconclusive means small, poorly fitted or top-dose-only effect, or effect the other way; inactive means no such curve, though single readings can be large or run the other way.
The reply should be one of these categories: true (1) = active, false (0) = inactive

>  <compound>
NC[C@H]1O[C@H](O[C@@H]2[C@@H](O)[C@@H](O[C@H]3O[C@H](CO)[C@@H](O)[C@H](N)[C@@H]3O)[C@H](N)C[C@@H]2N)[C@H](O)[C@@H](O)[C@H]1O

>  <assigned label>
false (0)

$$$$
>  <compound>
CN[C@@H]1[C@@H](O)[C@@H](O[C@@H]2[C@@H](O)[C@H](O[C@H]3O[C@H](CN)[C@@H](O)[C@H](O)[C@@H]3O)[C@@H](N)C[C@@H]2NC(=O)[C@@H](O)CN)OC[C@]1(C)O

>  <assigned label>
false (0)

$$$$
>  <compound>
N[C@@H](CC(=O)N1CCn2c(nnc2C(F)(F)F)C1)Cc1cc(F)c(F)cc1F

>  <assigned label>
true (1)

$$$$
>  <compound>
CCC(c1ccc(O)cc1)C(CC)c1ccc(O)cc1 (stereo not given)

>  <assigned label>
false (0)

$$$$

Q: Returns: the outcome recorded for "CC(O)=C(C#N)C(=O)Nc1ccc(C(F)(F)F)cc1" in this assay.
Ans: true (1)

----------
Experiment: Primary qHTS for inhibitors of nuclear receptor binding SET domain protein 2 (NSD2) in an RCH-ACV wild type WT cells (2C) (AID 1645877); further: nearly all actives have a fitted effect of over 70% in size
Details: RCH-ACV (leukaemia line) NSD2 WT (2C) viability, CellTiter-Glo, 72 h; series mostly up to 44.9 µM
Results filed as inconclusive are left out. Calls of active or inactive are those of the source. Calls come from the whole dose curve; as a rule, active = well fitted inhibition curve with a large enough effect; inconclusive = small, poorly fitted or top-dose-only effect; inactive = no such curve, though single readings can be large or run the other way.
The reply should be one of these categories: 1 (yes) for active, 0 (no) for inactive

Some solved cases for reference:
>  <compound>
CC1=C[C@@H]2[C@@H]([C@@H](O)C[C@@]3(C)[C@H]2C[C@@H](C)[C@]3(O)C(=O)CO)[C@@]2(C)Cc3cnn(-c4ccccc4)c3C=C12

>  <assigned label>
1 (yes)

$$$$
>  <compound>
CCOC(=O)[C@@H](N)CCC(=O)N[C@@H](CSCc1ccccc1)C(=O)N[C@@H](C(=O)OCC)c1ccccc1

>  <assigned label>
1 (yes)

$$$$
>  <compound>
CC(C)(OCc1nn(Cc2ccccc2)c2ccccc12)C(=O)O

>  <assigned label>
0 (no)

$$$$
>  <compound>
CN(C)S(=O)(=O)c1ccc2c(c1)C(=Cc1cc3c([nH]1)CCCC3)C(=O)N2

>  <assigned label>
1 (yes)

$$$$
>  <compound>
N#Cc1c(N(CC(=O)O)CC(=O)O)sc(C(=O)O)c1CC(=O)O

>  <assigned label>
0 (no)

$$$$
>  <compound>
Cc1ccccc1-n1c(Cn2nc(-c3cccc(O)c3)c3c(N)ncnc32)nc2cccc(C)c2c1=O

>  <assigned label>
1 (yes)

$$$$
>  <compound>
CN1CC(=O)NC1=NC(=O)Nc1cccc(Cl)c1

>  <assigned label>
0 (no)

$$$$
>  <compound>
CN(C)c1ccccc1CN1CCCN(Cc2ccccc2N(C)C)C1c1ccncc1

>  <assigned label>
1 (yes)

$$$$

Q: Returns: the outcome recorded for NCC1CCC(C(=O)O)CC1 (stereo not drawn) in this assay.
Ans: 0 (no)

----------
Assay: Quantitative High-Throughput drug screen in 47 multiple myeloma cell lines against the NCATS MIPE library collection: KMS12PE_JCRB cell viability assay (AID 1918972); further: nearly all actives have a fitted effect of over 30% in size;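 on viability: 100% = DMSO only wells and 0% = wells with media alone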
Conditions: KMS12PE myeloma viability, CellTiter-Glo ATP, 48 h; series mostly up to 45.8 µM
Description: PI: Beverly A. Mock Ph.D. Laboratory of Cancer Biology and Genetics, Center for Cancer Research, National Cancer Institute, National Institute of Health, Bethesda, Maryland […] 5; Detector; 425V; Luminescence; Viewlux PerkinElmer. […] 1. […] Briefly, the corresponding myeloma cell lines were screened in 1,536-well plates with 500 cells, 5-uL per well for inhibition of cell viability (assessed by measuring ATP levels with CellTiterGlo). […]
Results filed as inconclusive are left out. Calls of active or inactive are those of the source. Calls come from the whole dose curve; as a rule, active = well fitted cell-killing curve with a large enough effect; inconclusive = small, poorly fitted or top-dose-only effect, or effect the other way; inactive = no such curve, though single readings can be large or run the other way.
The reply should be one of these categories: active, inactive

Some solved cases for reference:
>  <molecule>
NC(=O)c1ncn([C@@H]2O[C@H](CO)[C@@H](O)[C@@H]2O)n1

>  <assigned label>
inactive

$$$$
>  <molecule>
C=CC[N+]1([C@H]2C[C@H]3[C@@H]4CC[C@H]5C[C@H](O)[C@@H](N6CCOCC6)C[C@]5(C)[C@@H]4CC[C@]3(C)[C@H]2OC(C)=O)CCCC1

>  <assigned label>
inactive

$$$$
>  <molecule>
CN1[C@H]2CC[C@H]1CC(OC(=O)c1c[nH]c3ccccc13)C2 (some centres undefined)

>  <assigned label>
inactive

$$$$

# next molecule below
Q: Returns: the outcome recorded for "CN(C)CCCNC(=O)c1ccc(-c2cc(O)c3ncccc3c2)cc1" in this assay.
Ans: active

----------
Assay: Quantitative High-Throughput drug screen in 47 multiple myeloma cell lines against the NCATS MIPE library collection: KMS27_JCRB cell viability assay (AID 1918970); further: nearly all actives have a fitted effect of over 30% in size
Details: KMS27 myeloma cells, CellTiter-Glo ATP viability, 48 h
Inconclusive results are not listed. The source made the active and inactive calls. The call rests on the fitted dose curve; in most records, active means well fitted cell-killing curve with a large enough effect; inconclusive means small, poorly fitted or top-dose-only effect, or effect the other way; inactive means no such curve, though single readings can be large or run the other way.
The reply should be one of these categories: t (active), f (inactive)

Some solved cases for reference:
>  <compound>
NCC1CCC(C(=O)O)CC1 (stereo not drawn)

>  <assigned label>
f

$$$$
>  <compound>
CC(C)=CCCC(C)=CCCC(C)=CCCC(C)=CCCC(C)=CCCC(C)=CCCC(C)=CCCC(C)=CCCC(C)=CCO

>  <assigned label>
f

$$$$
>  <compound>
C[C@@H](O[C@H]1OCCN(Cc2n[nH]c(=O)[nH]2)[C@@H]1c1ccc(F)cc1)c1cc(C(F)(F)F)cc(C(F)(F)F)c1

>  <assigned label>
f

$$$$
>  <compound>
Cc1cn([C@@H]2C[C@@H](O)[C@H](CO)O2)c(=O)[nH]c1=O

>  <assigned label>
f

$$$$
>  <compound>
O=C(O)c1ccc(O)c2ncc(N3CCOCC3)cc12

>  <assigned label>
t

$$$$

Q: Returns: the outcome recorded for "Cc1ccc(NC(=O)Nc2cc(C(F)(F)F)ccc2F)cc1Nc1ccc2c(c1)NC(=O)C2=Cc1ccc[nH]1" in this assay.
Ans: t

Q: Returns: the outcome recorded for "COc1cc2c(cc1OC)[C@@H]1Cc3ccc(OC)c(OC)c3CN1CC2" in this assay.
Ans: f

Q: Returns: the outcome recorded for CCNC(=O)CCCC=CC[C@@H]1[C@H](C=CC(O)CCc2ccccc2)[C@@H](O)C[C@@H]1O (stereo partly drawn) in this assay.
Ans: f

----------
Test: qHTS of pediatric cancer cell lines to identify multiple opportunities for drug repurposing: Primary screen for LAN-5 cells (AID 1347100)
Details: LAN-5 neuroblastoma viability, CellTiter-Glo luminescence, 48 h; series mostly up to 46 µM
Records with an inconclusive call do not appear. Activity calls are given as the source filed them. Calls come from the whole dose curve; as a rule, active = well fitted cell-killing curve with a large enough effect; inconclusive = small, poorly fitted or top-dose-only effect; inactive = no such curve, though single readings can be large or run the other way.
The reply should be one of these categories: active, inactive

Some solved cases for reference:
>  <compound>
O=S(=O)(NCCNCC=Cc1ccc(Br)cc1)c1cccc2cnccc12

>  <assigned label>
active

$$$$
>  <compound>
COc1cc(N2CCN(C)CC2)ccc1Nc1nc(N)c(C(=O)c2c(Cl)cccc2Cl)s1

>  <assigned label>
active

$$$$

Q: Returns: the outcome recorded for "CN(C)c1ccc(-c2nc3ncc(Cl)c(N4CCN(CC(=O)Nc5nccs5)CC4)c3[nH]2)cc1" in this assay.
Ans: active

Q: Returns: the outcome recorded for "O=C1Nc2ccc(I)cc2C1=Cc1cc(Br)c(O)c(Br)c1" in this assay.
Ans: inactive

Data origin, for the record: PubChem BioAssay (NCATS)
